target: WEE1 (human) (UniProt P30291); assay: radiometric filter-binding kinase assay, Kinase HotSpot; details: compound 0.5 µM; ATP 10 µM
Sequence (P30291 whole entry, looked up): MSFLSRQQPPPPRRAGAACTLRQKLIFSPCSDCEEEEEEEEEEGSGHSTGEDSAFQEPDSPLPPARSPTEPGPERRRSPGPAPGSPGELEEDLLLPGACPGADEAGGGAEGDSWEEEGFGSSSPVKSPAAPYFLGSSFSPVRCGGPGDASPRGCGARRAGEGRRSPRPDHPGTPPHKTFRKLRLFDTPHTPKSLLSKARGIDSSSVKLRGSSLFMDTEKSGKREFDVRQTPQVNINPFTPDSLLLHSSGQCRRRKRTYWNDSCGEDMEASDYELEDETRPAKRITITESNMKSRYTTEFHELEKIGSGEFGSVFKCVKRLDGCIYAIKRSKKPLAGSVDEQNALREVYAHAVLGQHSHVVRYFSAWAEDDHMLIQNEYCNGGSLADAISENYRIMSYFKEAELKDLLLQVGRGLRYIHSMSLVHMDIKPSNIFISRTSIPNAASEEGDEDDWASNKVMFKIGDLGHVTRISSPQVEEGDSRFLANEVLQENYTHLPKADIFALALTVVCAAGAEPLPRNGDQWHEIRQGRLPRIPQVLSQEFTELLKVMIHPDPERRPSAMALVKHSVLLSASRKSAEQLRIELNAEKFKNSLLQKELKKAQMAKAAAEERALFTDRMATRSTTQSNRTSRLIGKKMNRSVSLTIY
Entries and their measured residual activity follow.
Property: residual activity (%)

- CC(C)n1cnc2c(Nc3cccc(Cl)c3)nc(NCCO)nc21: 98.9
- Clc1ccc(Nc2nnc(Cc3ccncc3)c3ccccc23)cc1: 109
- COc1cc2ncnc(Nc3ccc(F)c(Cl)c3)c2cc1OCCCN1CCOCC1: 93.8
- CCN1/C(=C/C(C)=O)Sc2ccc(OC)cc21: 102
- O=C1Nc2cc(Br)ccc2/C1=C1/Nc2ccccc2/C1=N\O: 96
- CS(=O)c1ccc(-c2nc(-c3ccc(F)cc3)c(-c3ccncc3)[nH]2)cc1 (stereo unspecified): 92.1
- O=C1Nc2ccccc2/C1=C\c1c(Cl)[nH]c2ccccc12: 107
- Cc1ccc(NC(=O)c2ccc(CN3CCN(C)CC3)cc2)cc1Nc1nc(-c2cccnc2)cs1: 97
- CC(C)(C)c1nc2c3ccc(F)cc3c3c(=O)[nH]ccc3c2[nH]1: 87.4
- COc1cc2nccc(Oc3ccc(NC(=S)NC(=O)c4ccccc4C)cc3)c2cc1OC: 89.6
- CCCNC(=O)Nc1ccc(Oc2ncnc3cc(OC)c(OC)cc23)cc1Cl: 92.9
- NC(=O)c1ccc(N(C(N)=O)c2c(F)cccc2F)nc1-c1ccc(F)cc1F: 101
- Nc1nc(Nc2ccc(S(N)(=O)=O)cc2)nn1C(=S)Nc1c(F)cccc1F: 100
- C#Cc1cccc(Nc2ncnc3cc(OCCOC)c(OCCOC)cc23)c1: 95.2
- COc1ccc(-c2cnc3c(-c4ccsc4)cnn3c2)cc1: 102
- CSc1nc(-c2ccc(F)cc2)c(-c2ccnc(NC(C)c3ccccc3)c2)[nH]1 (stereo unspecified): 76.1
- O=C1Cc2c([nH]c3ccc([N+](=O)[O-])cc23)-c2ccccc2N1: 98.2
- Nc1n[nH]c2nnc(-c3c(-c4ccccc4)nn4ccccc34)cc12: 92.4
- O=C(NC(NC(=S)Nc1ccc(F)c([N+](=O)[O-])c1)C(Cl)(Cl)Cl)C(c1ccccc1)c1ccccc1 (stereo unspecified): 91.8
- O=C(Nc1ccc(Cl)cc1)c1ccccc1NCc1ccncc1: 90.1
- O=c1cc(N2CCNCC2)oc2c(-c3ccccc3)cccc12: 83.4
- Nc1nc(Nc2ccc(S(N)(=O)=O)cc2)nn1C(=O)c1c(F)cccc1F: 83.6
- CC(C)[C@H](CO)Nc1nc(Nc2cccc(Cl)c2)c2ncn(C(C)C)c2n1: 82.6
- Cc1cc2ncc(-c3ccccc3)nc2cc1C: 105
- O=c1cc(-c2cccc3c2Sc2ccccc2S3)oc(N2CCOCC2)c1: 98.3
- Oc1ccc(-c2nc(-c3ccc(F)cc3)c(-c3ccncc3)[nH]2)cc1: 94.9
